# target-of-assay: T1, human Claudin 18.2 (CLDN18.2) (human, UniProt P56856-2 1-261)
# T1 construct: whole, on cells; recombinantly expressed on CHO, HEK293, NCI-N87, NUGC4 or PANC-1 cells; also called CHO-CLDN18.2
# protocol-text: FACS on CHO-CLDN18.2 cells
property: pEC50
Reminder that pEC50 means the negative base-10 logarithm of the concentration expressed in mol/L.

Solved entries:
• 413H9F8-H4L3 (antibody, V domains shown, humanized IgG; constant regions not specified) VH: EVQLVESGGGLVQPGGSLRLSCAASGFTFSSFGMHWVRQAPGKGLEWVAYISSGSSPIYYVDKLKGRFTVSRDNAKNSLYLQMTSLRAEDTAVYYCARAGYAVRNALDYWGQGTLVTVSS VL: DIVMTQSPDSLAVSLGERATINCKSSQSLLNVGNQKNYLAWYQQKPGQPPKLLIYGASTRESGVPDRFIGSGSGTDFTLTISSLQAEDVAVYFCQNDLFYPLTFGGGTKVEIK = 8.58
• 413H9F8-H3L1 (antibody, V domains shown, humanized IgG; constant regions not specified) VH: EVQLVESGGGLVQPGGSLRLSCAASGFTFSSFGMHWVRQAPGKGLEWVAYISSGSSPIYYVDKLKGRFTVSRDNAKNSLYLQMNSLRAEDTAVYYCARAGYAVRNALDYWGQGTLVTVSS VL: DIVMTQSPDSLAVSLGERATINCKSSQSLLNVGNQKNYLAWYQQKPGQPPKLLIYGASTRESGVPDRFSGSGSGTDFTLTISSLQAEDVAVYYCQNDLFYPLTFGGGTKVEIK = 8.62
• 413H9F8-H1L3 (antibody, V domains shown, humanized IgG; constant regions not specified) VH: EVQLVESGGGLVQPGGSLRLSCAASGFTFSSFGMHWVRQAPGKGLEWVSYISSGSSPIYYVDKLKGRFTISRDNAKNSLYLQMNSLRAEDTAVYYCARAGYAVRNALDYWGQGTLVTVSS VL: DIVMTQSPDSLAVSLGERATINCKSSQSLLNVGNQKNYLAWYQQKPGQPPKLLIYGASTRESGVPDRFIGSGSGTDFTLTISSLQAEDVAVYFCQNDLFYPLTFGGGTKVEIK = 8.62
• 413H9F8-H1L2 (antibody, V domains shown, humanized IgG; constant regions not specified) VH: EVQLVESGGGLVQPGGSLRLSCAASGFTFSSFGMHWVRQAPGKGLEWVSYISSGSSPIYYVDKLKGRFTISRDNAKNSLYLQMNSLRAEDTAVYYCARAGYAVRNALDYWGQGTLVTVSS VL: DIVMTQSPDSLAVSLGERATINCKSSQSLLNVGNQKNYLAWYQQKPGQPPKLLIYGASTRESGVPDRFSGSGSGTDFTLTISSLQAEDVAVYFCQNDLFYPLTFGGGTKVEIK = 8.66

Turning to the following binder.
Qu. Item under review: hz282-11 (antibody, V domains shown, humanized IgG; constant regions not specified; also called humanized 282A12(T62A) (hz282-11)) VH: QVQLQESGPGLVKPSETLSLTCTVSGFSLTSYNVYWIRQPPGKGLEWIGVIWNTGATRYNSALKSRVTISKDTSKSQVSLKLSSVTAADTAVYYCARDSAMPAIPFAYWGQGTLVTVSS VL: DIQMTQSPSSLSASVGDRVTITCKSSQSLFGSVRQKNYLAWYQQKPGKAPKLLIYLASTRESGVPSRFSGSGSGTDFTLTISSLQPEDFATYYCQQYYDIPWTFGGGTKVEIK . Reported pEC50?
Ans. 8.50
